Each entry below carries its recorded Ki.
target: recombinant human ALK5 (TGF-βR1) protein (Homo sapiens); assay: Biochemical ALK5 (TGF-βR1) assay to measure pKi (LANCE Ultra ULight kinase assay); conditions: apparent pKi, converted from pIC50 using the Cheng-Prusoff equation

| compound | assayed target | Ki |
| --- | --- | --- |
| Fc1ccc(Cl)cc1-c1[nH]nnc1-c1ccc2ncc(N3CCNCC3)cc2c1 | recombinant human ALK5 (TGF-βR1) protein (Homo sapiens) | 0.398 to 3.16 nM |
| O=C(O)CC1CNCCN1CCNc1cnc2ccc(-c3nc[nH]c3-c3cc(Cl)ccc3F)nc2c1 (stereo not drawn) | recombinant human ALK5 (TGF-βR1) protein (Homo sapiens) | 0.0398 to 0.316 nM |
| COCc1cccc(-c2n[nH]cc2-c2ccc3ncc(-c4cnn(CCN)c4)cc3n2)c1 | recombinant human ALK5 (TGF-βR1) protein (Homo sapiens) | 0.0398 to 0.316 nM |
| CN(CCN1CCNCC1)c1cnc2ccc(-c3c[nH]nc3-c3cc(Cl)ccc3F)nc2c1 | recombinant human ALK5 (TGF-βR1) protein (Homo sapiens) | 0.0398 to 0.316 nM |
| CN(C)C1CCN(c2cnc3ccc(-c4c(-c5cc(Cl)ccc5F)nc5ccccn45)nc3c2)C1 (racemic) | recombinant human ALK5 (TGF-βR1) protein (Homo sapiens) | 0.0398 to 0.316 nM |
| CNC1CCN(c2cnc3ccc(-c4c[nH]nc4-c4ccc(F)c(F)c4)nc3c2)CC1 | recombinant human ALK5 (TGF-βR1) protein (Homo sapiens) | 0.398 to 3.16 nM |
| CN1CC(Nc2cnc3ccc(-c4c[nH]nc4-c4cc(Cl)ccc4F)nc3c2)C1 | recombinant human ALK5 (TGF-βR1) protein (Homo sapiens) | 0.0398 to 0.316 nM |
| CC(C)N1CCN(CCNc2cnc3ccc(-c4nc[nH]c4-c4ccc(F)c(F)c4)cc3c2)CC1 | recombinant human ALK5 (TGF-βR1) protein (Homo sapiens) | 3.98 to 31.6 nM |
| Fc1ccc(Cl)cc1-c1[nH]cnc1-c1ccc2ncc(-c3cn[nH]c3)cc2c1 | recombinant human ALK5 (TGF-βR1) protein (Homo sapiens) | 0.0398 to 0.316 nM |

* * *

Molecular target: recombinant human ALK5 (TGF-βR1) protein (Homo sapiens, UniProt P36897)
Sequence (P36897 34-503): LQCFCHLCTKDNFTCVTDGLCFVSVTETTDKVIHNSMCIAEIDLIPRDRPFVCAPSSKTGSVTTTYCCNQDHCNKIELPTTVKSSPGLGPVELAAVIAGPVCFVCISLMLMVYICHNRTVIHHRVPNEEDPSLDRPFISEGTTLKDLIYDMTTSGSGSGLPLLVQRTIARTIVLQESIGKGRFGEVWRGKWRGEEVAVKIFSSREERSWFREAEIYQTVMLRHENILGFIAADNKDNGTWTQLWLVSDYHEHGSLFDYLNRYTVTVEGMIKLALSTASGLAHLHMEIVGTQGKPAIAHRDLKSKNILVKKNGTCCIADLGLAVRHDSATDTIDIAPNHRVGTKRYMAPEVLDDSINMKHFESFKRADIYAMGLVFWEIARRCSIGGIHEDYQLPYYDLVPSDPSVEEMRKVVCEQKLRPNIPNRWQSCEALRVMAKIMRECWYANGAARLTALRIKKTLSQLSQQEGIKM
Experiment: Biochemical ALK5 (TGF-βR1) assay to measure pKi (LANCE Ultra ULight kinase assay)
Conditions: apparent pKi, converted from pIC50 using the Cheng-Prusoff equation
Each entry below carries its recorded Ki.

| compound | Ki |
| --- | --- |
| CNC1CCN(c2cnc3ccc(-c4c[nH]nc4-c4cc(Cl)ccc4F)nc3c2)C1 (centres unmarked) | 0.0398 to 0.316 nM |
| CN(C)C1(C)CN(c2cnc3ccc(-c4c[nH]nc4-c4cc(Cl)c(F)cc4F)nc3c2)C1 | 0.398 to 3.16 nM |
| NC1CCN(c2cnc3ccc(-c4c[nH]nc4-c4ccc(F)c(F)c4)nc3c2)C1 (centres unmarked) | 0.398 to 3.16 nM |
| Fc1ccc(Cl)cc1-c1[nH]cnc1-c1ccc2ncc(-c3cnc4n3CCN4)cc2c1 | 0.0398 to 0.316 nM |
| CN(C)C1CCN(c2cnc3ccc(-c4c[nH]nc4-c4cc(Cl)ccc4F)nc3c2)CC1 | 0.0398 to 0.316 nM |
| CC(C)OC(=O)[C@H]1CN(c2cnc3ccc(-c4c[nH]nc4-c4cc(Cl)ccc4F)nc3c2)CCN1 | 0.398 to 3.16 nM |
| Fc1ccc(Cl)cc1-c1n[nH]cc1-c1ccc2ncc(NCC3CNCCN3)cc2n1 (centres unmarked) | 0.0398 to 0.316 nM |
| Fc1ccc(Cl)cc1-c1[nH]cnc1-c1ccc2ncc(N3CCn4nc(C5=CCNC5)nc4C3)cc2n1 | 0.0398 to 0.316 nM |
| NC(=O)C1(N2CCN(c3cnc4ccc(-c5c[nH]nc5-c5cc(Cl)ccc5F)nc4c3)CC2)CCCC1 | 0.0398 to 0.316 nM |
| CN(C)C1CCN(c2cnc3ccc(-c4nc[nH]c4-c4cc(Cl)ccc4F)nc3c2)CC1 | 0.0398 to 0.316 nM |
| CNCC1CN(c2cnc3ccc(-c4c[nH]nc4-c4cc(Cl)c(F)cc4F)nc3c2)C1 | ≤ 0.0316 nM |

// data source = patent US11730720B2
